Listing of recorded amyloid nucleation score by entry.
Assay: amyloid nucleation score (Sup35N fusion, yeast selection) (log enrichment); library NNK2; higher = more nucleation; inactive = no reads after selection;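 further: zero at mode of non-aggregating sequences after 7 days selection at 30°C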

# Polymer Sequence, amyloid nucleation score
records = [
    ("LSVAKPSSACRVKLWSPSVG", 0.492),
    ("ARTSLCESTWPTNVRIGPKS", 0.498),
]

* * *

Test: amyloid nucleation score (Sup35N fusion, yeast selection) (log enrichment); library NNK2; higher = more nucleation; inactive = no reads after selection

# Polymer Sequence, amyloid nucleation score
records = [
    ("KYSTISRCAYSRIDVCGKKK", 0.488),
    ("YIGVKKNNSMAGAYGGSLAQ", "inactive"),
    ("EKICRWHTDRGAFN", "inactive"),
]

* * *

Test: amyloid nucleation score (Sup35N fusion, yeast selection) (log enrichment); library NNK2; higher = more nucleation; inactive = no reads after selection
// reported amyloid nucleation score per item

# Substance, amyloid nucleation score
rows = [
    ("IAFFGLCMSRVSLGVLEMRL", 2.21),
    ("LIFYIVNHECINGRYALVGY", 0.448),
    ("DEIIQRWIFNFIWDRLFYLR", 0.94),
    ("RMLLKLTHFALSVKGMQSRY", 0.417),
    ("DSQKLAGVVSIKVSVANVLS", 3.9),
    ("SVNWSFRSMNIFH", 3.45),
    ("FLNFIFELSSWMDF", -1.6),
    ("VTVTFIAEHSIWPSVNNCFV", 1.71),
    ("RGVVWRR", 0.23),
    ("LHYTYVSDCVCRMDTLLFGL", -0.278),
]

* * *

Assay: amyloid nucleation score (Sup35N fusion, yeast selection) (log enrichment); library NNK2; higher = more nucleation; inactive = no reads after selection
Form field: amyloid nucleation score (one value per entry).

# Substance, amyloid nucleation score
data = [
    ("FGVTHVSWIQERVTADGAER", 0.998),
    ("MTIDCFTFRDQGVYGTLMLK", 3.33),
    ("LLVRTYKLMMFHSLGIG", -0.583),
    ("VSYVDESHFVNTKSDMPSVS", -0.392),
    ("VDREKKEKTLVDGTQMVTCL", 1.12),
    ("SCLLSL", 0.506),
    ("QLVMCGHEDQYIRSDRSERN", -0.112),
    ("HNLNKTGDKRFYTLFVSSPR", 0.012),
    ("NWSGMPLPFLTFRKRFVEV", -0.998),
    ("AYRQMYTGNVR", 3.97),
    ("DYLSIFDYHDMMGQNFL", -0.151),
    ("RTSRVVIKILDPFQFVMLFI", -0.211),
    ("MVYGLDFIGASL", -0.016),
    ("CYVLFIRSDYGTWSMVH", 4.53),
    ("LDPCGYVVSSEGMLVIGVPI", 0.209),
    ("DFDGRRHSDNDLSWNSNF", -1.42),
    ("SRTWEFSFR", 2.5),
    ("LVTKSAGLKGGLMRGDRSRK", 0.585),
    ("DMSNQFYELVAMILMNST", -0.823),
    ("WNTIYMSTFVIRDFAIYIKY", 7.53),
    ("IYGLYG", 0.515),
    ("MKVLGNCISQIVNMDVWLLF", -1.73),
    ("WFRRQSLGWVRANGPVMRIS", 0.035),
    ("KNSIDQVTWTCNRYLKLVLS", -0.402),
    ("NPYKLTLPLTSLLLYSIPRA", -0.127),
    ("YHVPSGTCATR", 0.912),
    ("NDGAIGIVAPGEHLLVRDVK", -0.573),
    ("WKALAS", 1.74),
    ("WHTYSRCSFRKRAGSLVAFP", 0.365),
    ("TLMFVKNFDVRCEWEASFTM", 5.37),
    ("YNVDVFWYGLKFNDLVVVHF", 3.73),
    ("YAMCTWSV", 1.88),
    ("IYGQCWVFQNLLRLRVSV", 0.119),
]
